target: human EGFR (d746-750/T790M/C797S) (Homo sapiens, UniProt P00533, C797S/DEL746-750/T790M); construct: made in house; host or cells: Sf9 insect cells, baculovirus; experiment: Inhibitory activity against EGFR (d746-750/T790M/C797S) kinase; format: biochemical; conditions: Test Example 3, Table 8; same procedures as 1) in Test Example 1
Sequence (P00533 with tags, fused parts or gaps DEL746-750/T790M/C797S): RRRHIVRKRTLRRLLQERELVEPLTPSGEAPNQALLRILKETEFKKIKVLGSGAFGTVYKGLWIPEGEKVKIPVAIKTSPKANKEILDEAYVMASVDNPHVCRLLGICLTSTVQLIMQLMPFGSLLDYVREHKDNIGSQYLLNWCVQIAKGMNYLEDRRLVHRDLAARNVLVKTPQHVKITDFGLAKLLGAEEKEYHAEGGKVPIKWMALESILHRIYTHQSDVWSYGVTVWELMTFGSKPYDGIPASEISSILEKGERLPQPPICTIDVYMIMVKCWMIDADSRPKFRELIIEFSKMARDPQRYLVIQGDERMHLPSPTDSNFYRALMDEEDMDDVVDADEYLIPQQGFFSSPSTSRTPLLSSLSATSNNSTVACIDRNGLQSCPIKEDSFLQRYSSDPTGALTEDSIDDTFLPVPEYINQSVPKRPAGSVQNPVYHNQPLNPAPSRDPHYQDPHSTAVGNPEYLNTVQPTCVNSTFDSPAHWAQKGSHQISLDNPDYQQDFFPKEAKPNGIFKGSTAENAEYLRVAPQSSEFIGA
Each entry below carries its reported IC50.

{"columns": ["structure smiles string", "IC50"],
 "data": [
  ["C#Cc1c(-c2cnc3ccccc3c2)c2c(N)ncnc2n1C12CCC(NC(=O)c3cnc4cnccn34)(CC1)C2", "< 0.3 nM"],
  ["C#Cc1c(-c2cnc3ccccc3c2)c2c(N)ncnc2n1C12CCC(NC(=O)c3cnc(CN(C)C)cn3)(CC1)C2", "< 0.3 nM"],
  ["C#Cc1c(-c2cnc3ccccc3c2)c2c(N)ncnc2n1C12CCC(NC(=O)c3cnc(CN4CCOCC4)cn3)(CC1)C2", "< 0.3 nM"],
  ["C#Cc1c(-c2cnc3ccccc3c2)c2c(N)ncnc2n1C12CCC(NC(=O)c3cnc4ccccn34)(CC1)C2", "< 0.3 nM"],
  ["C#Cc1c(-c2cnc3ccccc3c2)c2c(N)ncnc2n1C12CCC(NC(=O)OCc3cnccn3)(CC1)C2", "0.37 nM"]
]}
